Value source: paper PMC10967458

- Target: K. pneumoniae FtsZ (KpFtsZ) (Klebsiella pneumoniae, UniProt A0A0H3GRR0)
- Sequence (A0A0H3GRR0 entry or part of it): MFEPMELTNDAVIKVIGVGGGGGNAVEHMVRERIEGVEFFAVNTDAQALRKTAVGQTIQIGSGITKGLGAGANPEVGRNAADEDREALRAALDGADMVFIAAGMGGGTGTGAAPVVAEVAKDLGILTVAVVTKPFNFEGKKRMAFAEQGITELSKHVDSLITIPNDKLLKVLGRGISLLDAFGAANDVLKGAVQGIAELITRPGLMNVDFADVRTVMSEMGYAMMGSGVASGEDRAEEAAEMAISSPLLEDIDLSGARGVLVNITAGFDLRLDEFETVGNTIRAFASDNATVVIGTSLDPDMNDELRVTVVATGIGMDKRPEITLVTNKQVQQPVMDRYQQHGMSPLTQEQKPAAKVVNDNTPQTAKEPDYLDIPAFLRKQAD
Value type: Kd
A complete answer gives the number followed by the unit.

# lookup: Kd of NC(=O)c1c(F)ccc(OC(CCNC(=O)c2ccc(O)c(O)c2Cl)c2nc(-c3ccc(C(F)(F)F)cc3)c(Br)o2)c1F (stereo not shown) [RUP4]
49 µM
